Where do the numbers come from? From patent US20070178531A1.

Biological target: T1, Mouse Id2: Histidine (mouse, UniProt P41136 1-134, limits assumed)
T1 construct: Fusion protein made in E. coli from vector pGW07; also called m-Id2: His; not shown: His tag
T1 sequence (looked up): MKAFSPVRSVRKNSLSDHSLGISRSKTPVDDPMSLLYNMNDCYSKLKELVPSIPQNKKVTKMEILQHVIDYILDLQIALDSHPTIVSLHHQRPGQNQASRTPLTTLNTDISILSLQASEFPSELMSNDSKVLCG
Experiment: ELISA, Ab 0.010 µg/ml
Procedure: The rabbit monoclonal anti-human Id3 (clone #3-3) and the rabbit monoclonal anti-mouse/human Id3 (clones #6-1, 16-1, 17-3, and 42-1) produced in Example 6 were tested reactivity against the following antigens: mouse Id1:His, human Id1:His, mouse Id2:His, human Id2:His, mouse Id3:His, human Id3:His, mouse Id4:His, human Id4:His and GST. 1. […]
property: A450 (A450)
// return numeric value only (unit: A450, not printed)

Ask | Sample rabbit monoclonal anti-mouse/human Id3, clone #BCH-4/#16-1 (antibody, V domains shown, Rabbit IgG from a rabbit hybridoma; also called m/h Id3 MoAb 16-1) VH: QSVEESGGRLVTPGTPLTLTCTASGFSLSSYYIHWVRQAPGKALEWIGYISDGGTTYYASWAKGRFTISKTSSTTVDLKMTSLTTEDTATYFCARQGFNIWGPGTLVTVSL VL: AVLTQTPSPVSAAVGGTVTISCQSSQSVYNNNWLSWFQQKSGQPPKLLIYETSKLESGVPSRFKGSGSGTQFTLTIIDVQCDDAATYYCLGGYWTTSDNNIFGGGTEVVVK — what was its A450?
Reply | 0.049
